The reader will find reported pest or weed control at 320 g/ha values listed item by item below.
- System: ALOMY
- assay-details: Post-emergence herbicidal effect, greenhouse pot test
- Assay type: in vivo, Alopecurus myosuroides
- stated-conditions: Alopecurus myosuroides, 504 h, 320 g/ha, visual rating about 3 weeks after treatment, read-out: Post-emergence effect against ALOMY

molecule | unit-spec | pest or weed control at 320 g/ha
CCOC(=O)C(OC)Oc1nn(-c2cnccn2)c(-c2ccc(F)nc2)c1Cl (stereo not drawn) [Example I-46] | % | 90
COC(=O)C(OC)Oc1nn(-c2ncccc2F)c(-c2ccc(F)nc2)c1Cl (stereo not drawn) [Example I-38] | % | 100
CCOC(=O)C(OC)Oc1nn(-c2cc(F)ccc2F)c(-c2cncc(F)c2)c1C1CC1 (stereo not drawn) [Example I-37] | % | 100
COC(Oc1nn(-c2ncccc2F)c(-c2ccc(F)nc2)c1C1CC1)C(=O)O (stereo not drawn) [Example I-89] | % | 90
CCOC(Oc1nn(-c2ccccc2F)c(-c2ccc(F)nc2)c1Br)C(=O)OCCC(=O)OC (single isomer, unassigned) [Example I-59] | % | 90
CCOC(=O)C(OC)Oc1nn(-c2ncccc2F)c(-c2ccc(F)nc2)c1Cl (stereo not drawn) [Example I-48] | % | 90
COC(=O)C(OC)Oc1nn(-c2ncccc2F)c(-c2ccc(F)nc2)c1I (stereo not drawn) [Example I-39] | % | 100
COC(=O)C(OC)Oc1nn(-c2cnccn2)c(-c2ccc(F)nc2)c1Cl (stereo not drawn) [Example I-35] | % | 90
COC(=O)C(OC)Oc1nn(-c2ncccc2F)c(-c2ccccc2)c1Br (stereo not drawn) [Example I-06] | % | 90
COC(=O)C(OC)Oc1nn(-c2ncccc2F)c(-c2ccc(F)cc2F)c1Br (stereo not drawn) [Example I-07] | % | 90
CCOC(=O)C(OC)Oc1nn(-c2ncccc2F)c(-c2cncc(F)c2)c1C1CC1 (stereo not drawn) [Example I-113] | % | 100
CCOC(=O)C(OC)Oc1nn(-c2cc(F)ccc2F)c(-c2cncc(F)c2)c1Br (stereo not drawn) [Example I-33] | % | 90
CCOC(=O)C(OC)Oc1nn(-c2ncccc2F)c(-c2ccc(F)nc2)c1Br (stereo not drawn) [Example I-14] | % | 90
COC(=O)C(OC)Oc1nn(-c2ccccc2F)c(-c2ccc(F)nc2)c1C1CC1 (stereo not drawn) [Example I-71] | % | 90
COC(=O)C(OC)Oc1nn(-c2ccccc2F)c(-c2ccc(F)nc2)c1C(F)(F)F (stereo not drawn) [Example I-70] | % | 90
COC(=O)C(OC)Oc1nn(-c2ncccc2F)c(-c2cncc(F)c2)c1Br (stereo not drawn) [Example I-91] | % | 80
COC(=O)C(OC)Oc1nn(-c2ncccc2F)c(-c2cncc(F)c2)c1C1CC1 (stereo not drawn) [Example I-73] | % | 90
COC(=O)C(OC)Oc1nn(-c2ncccc2F)c(-c2cncc(F)c2)c1I (stereo not drawn) [Example I-72] | % | 90
COC(=O)C(OC)Oc1nn(-c2ncccc2F)c(-c2ccc(F)nc2)c1C1CC1 (stereo not drawn) [Example I-40] | % | 90
COC(Oc1nn(-c2cnccn2)c(-c2ccc(F)nc2)c1Cl)C(=O)O (stereo not drawn) [Example I-42] | % | 90
COC(=O)C(OC)Oc1nn(-c2cc(F)ccc2F)c(-c2cncc(F)c2)c1C1CC1 (stereo not drawn) [Example I-111] | % | 90
COC(=O)C(OC)Oc1nn(-c2cc(F)ccc2F)c(-c2cncc(F)c2)c1I (stereo not drawn) [Example I-28] | % | 90
COC(Oc1nn(-c2cc(F)ccc2F)c(-c2cncc(F)c2)c1C1CC1)C(=O)O (stereo not drawn) [Example I-109] | % | 90
CCOC(=O)C(OCC)Oc1nn(-c2ccccc2F)c(-c2ccc(F)nc2)c1Cl (stereo not drawn) [Example I-50] | % | 80
COC(Oc1nn(-c2ncccc2F)c(-c2cncc(F)c2)c1C1CC1)C(=O)O (stereo not drawn) [Example I-68] | % | 90
CCOC(=O)C(OCC)Oc1nn(-c2ccccc2F)c(-c2ccc(F)nc2)c1Br (racemic) [Example I-01] | % | 100
CCOC(=O)C(OC)Oc1nn(-c2ncccc2F)c(-c2ccc(F)nc2)c1C(F)(F)F (stereo not drawn) [Example I-55] | % | 90
COC(=O)C(OC)Oc1nn(-c2ncccc2F)c(-c2ccc(F)nc2)c1Br (stereo not drawn) [Example I-05] | % | 90
COC(=O)C(OC)Oc1nn(-c2ccccc2F)c(-c2ccc(F)nc2)c1Br (racemic) [Example I-04] | % | 90
CCOC(=O)C(OC)Oc1nn(-c2ccccc2F)c(-c2ccc(F)nc2)c1Br (stereo not drawn) [Example I-22] | % | 90
COC(=O)C(OC)Oc1nn(-c2ncccc2F)c(-c2ccc(F)nc2)c1C(F)(F)F (stereo not drawn) [Example I-41] | % | 90
COC(=O)C(OC)Oc1nn(-c2cc(F)ccc2F)c(-c2cncc(F)c2)c1Br (stereo not drawn) [Example I-29] | % | 90
CCOC(Oc1nn(-c2ccccc2F)c(-c2ccc(F)nc2)c1Br)C(=O)OCCC(=O)OC (single isomer, unassigned) [Example I-63] | % | 90
